Molecular target: full-length beta-Catenin (Uniprot ID P35222) (Homo sapiens)
Construct: 10 nM full-length beta-Catenin (Uniprot ID P35222)
Assay: Fluorescence polarization IC50 (beta-catenin / 5FAM-TCF4 10-53 competition)
Type: binding
Conditions: fluorescence polarization; read-out: beta-Catenin FP IC50
Listing of recorded pIC50 by entry.
# log scale: pIC50 equals minus log10 of the concentration in mol/L

QUERY: Fill blank: measured pIC50 of the molecule CCSSCCOC(=O)C[C@@H]1NC(=O)[C@]2(CC=CCCCC3(CCCC=CCCCOC(=O)N4CC[C@@](C(=O)N[C@@H](Cc5ccsc5)C(=O)N[C@@H](Cc5csc6ccccc56)C(=O)N[C@@H](CCC(N)=O)C(N)=O)(C4)NC(=O)[C@H](CC(C)C)NC(=O)[C@H](Cc4ccccc4)NC(=O)[C@H](C)NC(=O)[C@H](C)NC(=O)[C@H](CC(=O)O)NC(=O)[C@H](CC(=O)O)NC3=O)NC(=O)[C@H](CC(C)(C)C)NC1=O)CCCN2C(C)=O (stereo partly drawn) [I-1963] is ____.
RESULT: 6.49

QUERY: What value of measured pIC50 is listed for CC(=O)N1CCC[C@]12CC=CCCCC1(CCCC=CCCCOC(=O)N3CC[C@@](C(=O)N[C@@H](Cc4ccsc4)C(=O)N[C@@H](Cc4csc5ccccc45)C(=O)N[C@@H](Cc4ccccc4C(N)=O)C(N)=O)(C3)NC(=O)[C@H](CC(C)C)NC(=O)[C@H](Cc3ccccc3)NC(=O)[C@H](C)NC(=O)[C@H](C)NC(=O)[C@H](CN(CC(=O)O)CC(F)(F)F)NC(=O)[C@H](CC(=O)O)NC1=O)NC(=O)[C@H](CC(C)(C)C)NC(=O)[C@H](CC(=O)O)NC2=O (stereo partly drawn) [I-1707] ?
RESULT: 7.72

QUERY: Record request: pIC50 value, item CC(=O)N1CCC[C@]12CC=CCCCC1(CCCC=CCCCOC(=O)N3CC[C@@](C(=O)N[C@@H](Cc4ccsc4)C(=O)N[C@@H](Cc4csc5ccccc45)C(=O)N[C@@H](C)C(N)=O)(C3)NC(=O)[C@H](C(C)C)NC(=O)[C@H](Cc3ccccc3)NC(=O)[C@H](C)NC(=O)[C@H](CCC(=O)N(C)C)NC(=O)[C@H](Cc3cccc(C(=O)O)c3)NC(=O)[C@H](CC(=O)O)NC1=O)NC(=O)[C@H](CC(C)(C)C)NC(=O)[C@H](CC(=O)O)NC2=O (stereo partly drawn) [I-2303]
RESULT: 8.30

###

Biological target: full-length beta-Catenin (Uniprot ID P35222) (Homo sapiens)
Construct: 10 nM full-length beta-Catenin (Uniprot ID P35222)
Sequence (P35222 1-781): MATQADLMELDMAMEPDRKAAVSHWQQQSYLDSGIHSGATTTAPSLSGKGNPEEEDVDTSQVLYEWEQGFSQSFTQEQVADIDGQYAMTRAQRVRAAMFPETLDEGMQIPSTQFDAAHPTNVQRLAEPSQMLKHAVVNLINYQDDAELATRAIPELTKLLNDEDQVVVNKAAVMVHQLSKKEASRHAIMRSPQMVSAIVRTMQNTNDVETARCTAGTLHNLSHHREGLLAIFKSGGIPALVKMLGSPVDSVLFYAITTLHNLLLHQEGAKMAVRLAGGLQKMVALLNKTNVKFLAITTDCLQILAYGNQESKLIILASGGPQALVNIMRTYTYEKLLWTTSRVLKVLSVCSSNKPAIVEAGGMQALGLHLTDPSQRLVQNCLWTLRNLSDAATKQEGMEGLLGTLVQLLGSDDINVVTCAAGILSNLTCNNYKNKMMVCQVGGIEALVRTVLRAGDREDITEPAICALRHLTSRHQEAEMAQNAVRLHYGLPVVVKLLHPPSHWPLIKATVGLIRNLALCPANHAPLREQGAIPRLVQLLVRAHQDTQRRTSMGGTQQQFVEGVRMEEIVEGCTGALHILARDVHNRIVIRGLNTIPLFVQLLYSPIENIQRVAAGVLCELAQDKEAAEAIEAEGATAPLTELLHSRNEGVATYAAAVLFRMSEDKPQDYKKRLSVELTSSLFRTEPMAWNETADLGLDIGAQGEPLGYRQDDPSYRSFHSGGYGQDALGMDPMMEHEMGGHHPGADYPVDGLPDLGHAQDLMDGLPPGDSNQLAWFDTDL
Assay: Fluorescence polarization IC50 (beta-catenin / 5FAM-TCF4 10-53 competition)
Type: binding
Conditions: fluorescence polarization; read-out: beta-Catenin FP IC50
Listed here: items and their measured pIC50.
pIC50 (log units): -log10 of the concentration in mol/L.

Please review the entries below; each comes with its answer.
compound	system.tested	val
CC(=O)N1CCC[C@]12CC=CCCCC1(CCCC=CCCCOC(=O)N3CC[C@@](C(=O)N[C@@H](Cc4ccsc4)C(=O)N[C@@H](Cc4csc5ccccc45)C(=O)N[C@@H](CCC(N)=O)C(N)=O)(C3)NC(=O)[C@H](CC(C)C)NC(=O)[C@H](Cc3ccccc3)NC(=O)[C@H](C)NC(=O)[C@H](C)NC(=O)[C@H](CN(CC(=O)O)C(=O)c3ccc(CN4CCOCC4)cc3)NC(=O)[C@H](CC(=O)O)NC1=O)NC(=O)[C@H](CC(C)(C)C)NC(=O)[C@H](CC(=O)O)NC2=O (stereo partly drawn) [I-2238]	full-length beta-Catenin (Uniprot ID P35222) (Homo sapiens)	7.96
CC[C@H](C)[C@H](NC(=O)[C@H](Cc1c[nH]cn1)NC(=O)[C@H](Cc1csc2ccccc12)NC(=O)[C@H](Cc1ccccc1)NC(=O)[C@]1(C)CCCCCCC=CCCCC2(CCCC=CC[C@]3(CCCN3C(C)=O)C(=O)N[C@@H](CC(=O)O)C(=O)N[C@@H](CC(C)C)C(=O)N2)C(=O)N[C@@H](CC(=O)O)C(=O)N[C@@H](CCC(=O)O)C(=O)N[C@@H](C)C(=O)N[C@@H](C)C(=O)N[C@@H](Cc2ccccc2)C(=O)N[C@@H](CC(N)=O)C(=O)N1)C(N)=O (stereo partly drawn) [I-740]	full-length beta-Catenin (Uniprot ID P35222) (Homo sapiens)	6.42
CC(=O)N1CCC[C@]12CC=CCCCC1(CCCC=CCCCOC(=O)N3CC[C@@](C(=O)N[C@@H](Cc4ccsc4)C(=O)N[C@@H](Cc4csc5ccccc45)C(=O)N[C@@H](C)C(N)=O)(C3)NC(=O)[C@H](Cc3ccccc3)NC(=O)[C@H](Cc3ccccc3)NC(=O)[C@H](C)NC(=O)[C@H](CCC(N)=O)NC(=O)[C@H](Cc3cccc(C(=O)O)c3)NC(=O)[C@H](CC(=O)O)NC1=O)NC(=O)[C@H](CC(C)(C)C)NC(=O)[C@H](CC(=O)O)NC2=O (stereo partly drawn) [I-2052]	full-length beta-Catenin (Uniprot ID P35222) (Homo sapiens)	7.92

QUERY: If you can, please state the reported pIC50 value of CC(=O)N1CCC[C@]12CC=CCCCC1(CCCC=CCCCOC(=O)N3CC[C@@](C(=O)N[C@@H](Cc4ccccc4)C(=O)N[C@@H](Cc4csc5ccccc45)C(=O)N[C@@H](CCO)C(N)=O)(C3)NC(=O)[C@H](CC(N)=O)NC(=O)[C@H](Cc3ccccc3)NC(=O)[C@H](C)NC(=O)[C@H](CCCCNC(C)C)NC(=O)[C@H](CCC(N)=O)NC(=O)[C@H](CC(=O)O)NC1=O)NC(=O)[C@H](CC1CCCCC1)NC(=O)[C@H](CCO)NC2=O (stereo partly drawn) [I-1932] .
RESULT: 6.55

QUERY: Item under review: CC(=O)N1CCC[C@]12CC=CCCCC1(CCCC=CCCCOC(=O)N3CC[C@@](C(=O)N[C@@H](Cc4ccsc4)C(=O)N[C@@H](Cc4csc5ccccc45)C(=O)N[C@@H](CCC(N)=O)C(=O)N[C@H](CO)[C@@H](C)O)(C3)NC(=O)[C@H](CC(C)C)NC(=O)[C@H](Cc3ccccc3)NC(=O)[C@H](C)NC(=O)[C@H](C)NC(=O)[C@H](CN(CC(=O)O)CC(F)(F)F)NC(=O)[C@H](CC(=O)O)NC1=O)NC(=O)[C@H](CC(C)(C)C)NC(=O)[C@H](CC(=O)O)NC2=O (stereo partly drawn) [I-1683] . Reported pIC50?
RESULT: 8.05

QUERY: What pIC50 value was documented for this compound, CC(=O)N1CCC[C@]12CC=CCCCC1(CCCC=CCCCCCC[C@@](C)(C(=O)N[C@@H](Cc3ccccc3)C(=O)N[C@@H](Cc3csc4ccccc34)C(=O)N[C@@H](CCC(N)=O)C(N)=O)NC(=O)[C@H](CC(N)=O)NC(=O)[C@H](Cc3ccccc3)NC(=O)[C@H](C)NC(=O)[C@H](C)NC(=O)[C@H](CCC(=O)O)NC(=O)[C@H](CC(=O)O)NC1=O)NC(=O)[C@H](CC(C)C)NC(=O)[C@H](CC(=O)O)NC2=O (stereo partly drawn) [I-576] ?
RESULT: 7.64
